Cited source for all entries: ChEMBL document CHEMBL3988442

Please provide measured Percent Effect for the entries that follow.
Target: Chromo domain-containing protein 1 (Saccharomyces cerevisiae (strain ATCC 204508 / S288c) (Baker's yeast)) (UniProt P32657)
Sequence (P32657 whole entry, the tested form may be a part): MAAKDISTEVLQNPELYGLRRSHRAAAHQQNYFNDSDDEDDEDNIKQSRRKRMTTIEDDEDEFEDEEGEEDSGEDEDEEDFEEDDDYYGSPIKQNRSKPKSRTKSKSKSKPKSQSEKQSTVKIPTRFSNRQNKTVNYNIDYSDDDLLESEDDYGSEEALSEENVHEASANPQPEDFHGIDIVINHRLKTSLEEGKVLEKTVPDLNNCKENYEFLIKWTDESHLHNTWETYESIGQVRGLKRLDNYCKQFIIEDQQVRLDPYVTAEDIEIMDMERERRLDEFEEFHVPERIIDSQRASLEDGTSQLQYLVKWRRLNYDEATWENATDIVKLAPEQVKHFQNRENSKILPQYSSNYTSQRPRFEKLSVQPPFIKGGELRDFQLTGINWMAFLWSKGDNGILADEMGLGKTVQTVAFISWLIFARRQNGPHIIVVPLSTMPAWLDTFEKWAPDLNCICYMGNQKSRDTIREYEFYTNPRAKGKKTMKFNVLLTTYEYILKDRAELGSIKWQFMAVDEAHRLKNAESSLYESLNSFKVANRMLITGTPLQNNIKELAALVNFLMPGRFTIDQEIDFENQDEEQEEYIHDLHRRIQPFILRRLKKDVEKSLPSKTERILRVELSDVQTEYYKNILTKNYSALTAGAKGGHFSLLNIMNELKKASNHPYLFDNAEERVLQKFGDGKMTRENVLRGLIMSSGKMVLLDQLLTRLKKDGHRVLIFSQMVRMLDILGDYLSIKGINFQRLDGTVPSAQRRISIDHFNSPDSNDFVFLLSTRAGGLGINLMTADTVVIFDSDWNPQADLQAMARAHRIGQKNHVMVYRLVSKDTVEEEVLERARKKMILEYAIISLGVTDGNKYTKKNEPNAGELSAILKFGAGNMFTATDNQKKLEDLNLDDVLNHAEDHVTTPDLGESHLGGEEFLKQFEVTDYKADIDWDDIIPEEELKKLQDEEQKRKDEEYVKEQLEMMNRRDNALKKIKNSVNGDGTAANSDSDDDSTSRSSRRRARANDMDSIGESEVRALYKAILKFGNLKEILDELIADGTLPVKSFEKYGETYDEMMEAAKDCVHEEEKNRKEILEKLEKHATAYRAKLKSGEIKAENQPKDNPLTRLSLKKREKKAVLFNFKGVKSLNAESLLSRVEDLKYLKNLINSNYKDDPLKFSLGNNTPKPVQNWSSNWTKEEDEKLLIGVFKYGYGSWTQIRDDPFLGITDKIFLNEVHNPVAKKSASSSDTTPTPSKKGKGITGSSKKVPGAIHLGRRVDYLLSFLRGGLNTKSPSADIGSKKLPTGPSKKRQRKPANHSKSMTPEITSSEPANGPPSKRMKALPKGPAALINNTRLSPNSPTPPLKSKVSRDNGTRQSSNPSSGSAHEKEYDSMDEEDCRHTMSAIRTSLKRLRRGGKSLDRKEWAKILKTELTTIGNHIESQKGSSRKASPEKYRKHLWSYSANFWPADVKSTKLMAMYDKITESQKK
Assay: ScCHD-1 Enzyme Inhibition Assay; note: in the data most compounds retested in dose-response had high values
Assay type: functional
Set-up: scale not given: direction of the effect not stated beside the values
Details: 30 µM
State the answer as a number, implicitly in %.

stdin: // returns reported Percent Effect for input CCC1CN(C(=O)Nc2cnc3c(cnn3C(C)C)c2)CCO1 (stereo not drawn)
stdout: -2.08

stdin: // returns reported Percent Effect for input CN(C)C(=O)CO[C@H]1CN(Cc2ccc(F)cc2)[C@@H]2CCCO[C@H]12
stdout: -1.79

stdin: // returns reported Percent Effect for input COCC(=O)N1CC[C@@H]2CN(Cc3cccc(Cl)c3)S(=O)(=O)[C@@H]2CC1
stdout: -5.91

stdin: // returns reported Percent Effect for input Cc1cc(CN2CCc3nn(C(C)C)c(=O)cc3C2)no1
stdout: -7.52

stdin: // returns reported Percent Effect for input Cc1cccc(-n2cc(C(=O)N3CCCC(n4cccn4)C3)nn2)c1 (stereo not drawn)
stdout: -14.2

stdin: // returns reported Percent Effect for input CN(CC1(O)CCCCC1)C1CCCN(Cc2noc(C3CC3)n2)C1 (stereo not drawn)
stdout: -3.04

stdin: // returns reported Percent Effect for input CC(c1nc(C2CC2)no1)N1CCN(CCOCC(F)(F)F)CC1 (stereo not drawn)
stdout: 1.39

stdin: // returns reported Percent Effect for input Cc1nn(CC(=O)N2CCCCC2Cn2cccn2)c(C)c1Cl (stereo not drawn)
stdout: -2.37

stdin: // returns reported Percent Effect for input O=C(c1ccc(Br)s1)N1CCN(Cc2ccc(OC(F)(F)F)cc2)CC1
stdout: -11.7

stdin: // returns reported Percent Effect for input O=S(=O)(Cc1ccccc1F)NCCCN1CCCCC1
stdout: -4.29

stdin: // returns reported Percent Effect for input CC1(C)CC(N2Cc3nc(N4CCOCC4)ncc3C2=O)CC(C)(C)N1
stdout: -0.541

stdin: // returns reported Percent Effect for input CC(C)Nc1nc2c(cc1C(=O)N(C)C)CCNCC2
stdout: -4.61

stdin: // returns reported Percent Effect for input Cc1ccc(N2CCCC(NCc3cccc4c3OCCO4)C2)nn1 (stereo not drawn)
stdout: -10.3

* * *

Organism: Homo sapiens
Assay: To identify inhibition of the IFN signalling (Jak-Stat) pathway via expression of an eGFP reporter gene under the control of an IFN-stimulated response element (ISRE) containing MxA promoter.
Assay type: functional
Set-up: scale not given: direction of the effect not stated beside the values
Conditions: 30 µM
Please provide measured Percent Effect for the entries that follow.
State the answer as a number, implicitly in %.

stdin: // returns reported Percent Effect for input Clc1ccc2oc(C3CCN(Cc4cccnc4)CC3)nc2c1
stdout: 32.2

stdin: // returns reported Percent Effect for input Cn1ncc2c1CCCC2NCc1ccc(Cl)s1 (stereo unspecified)
stdout: 9.39

stdin: // returns reported Percent Effect for input COc1cc(CCC(=O)NCC2CCCN2C)ccc1OCC(F)(F)F (stereo unspecified)
stdout: 14.2

stdin: // returns reported Percent Effect for input CCn1cc(NC(=O)NCC(O)c2ccccc2)cn1 (stereo unspecified)
stdout: -8.48

stdin: // returns reported Percent Effect for input OCCOCCN1CCCC1c1nc2cc(F)ccc2[nH]1 (stereo unspecified)
stdout: 9.67

stdin: // returns reported Percent Effect for input CC(C)n1ccnc1C1CCCN(c2ccccn2)C1 (stereo unspecified)
stdout: 15.1

stdin: // returns reported Percent Effect for input C[S+]([O-])c1nncn1CC(=O)c1ccc2c(c1)CCO2 (stereo unspecified)
stdout: -10.5

stdin: // returns reported Percent Effect for input Cc1cc(C)n(CCC(=O)N2CCC(c3nc(C(C)C)no3)CC2)n1
stdout: -3.55

stdin: // returns reported Percent Effect for input Cc1cnn(C2CN(CC(O)c3ccc(F)cc3)C2)c1 (stereo unspecified)
stdout: 17.9

stdin: // returns reported Percent Effect for input O=C(Cc1ccc2c(c1)CCO2)N1CCN(c2cnccn2)CC1
stdout: 5.16

stdin: // returns reported Percent Effect for input COc1ccccc1CC(=O)NCc1c(C)nc2cc(=O)[nH]n2c1C
stdout: 7.43

stdin: // returns reported Percent Effect for input O=C1NC(c2ccccc2)=N[C@@]12CC[C@@H]1CN(CC3CCOCC3)C[C@@H]12
stdout: -0.209

stdin: // returns reported Percent Effect for input Cc1cc(C)c(CNC(=O)C2CCCN(c3cnccn3)C2)c(=O)[nH]1 (stereo unspecified)
stdout: -8.19

stdin: // returns reported Percent Effect for input CC(C)Nc1nc2c(cc1C(=O)NCC1CC1)CCNCC2
stdout: -6.96

stdin: // returns reported Percent Effect for input COCCN(C)C(=O)c1ccc(OC)cc1O
stdout: 8.7

stdin: // returns reported Percent Effect for input CC(C)OCc1ncn2c1CN(Cc1cccs1)CCC2
stdout: 12.4

stdin: // returns reported Percent Effect for input CC(C)C(C(=O)N1CCCN(Cc2nccn2C)CC1)N1CCCC1 (stereo unspecified)
stdout: 20

stdin: // returns reported Percent Effect for input Cc1[nH]c(=O)[nH]c(=O)c1CN1CCCC(CCc2c(F)cccc2F)C1 (stereo unspecified)
stdout: 5.92

stdin: // returns reported Percent Effect for input CC(Cc1ccco1)NC(=O)Nc1cnn(CC(N)=O)c1 (stereo unspecified)
stdout: 9.49

stdin: // returns reported Percent Effect for input Cc1cnc(N2CCCC3(CCN(Cc4csc(C)n4)C3=O)C2)nc1 (stereo unspecified)
stdout: -4.88

stdin: // returns reported Percent Effect for input CCn1nc(CC(C)C)cc1C(=O)NCCn1cccc1
stdout: -24.3

stdin: // returns reported Percent Effect for input CC(C)(C)n1cc(C(=O)N2CCN(Cc3ccccc3F)CC2)cn1
stdout: 10.5

stdin: // returns reported Percent Effect for input CCc1c(C(=O)N2CCN(CC(N)=O)CC2)cnn1C(C)(C)C
stdout: -6.74

stdin: // returns reported Percent Effect for input O=C(c1ccnnc1)N1C[C@H]2CCC[C@@]2(COCC2CCOCC2)C1
stdout: -6.27

stdin: // returns reported Percent Effect for input CCS(=O)(=O)N1C[C@H]2CN(Cc3cccnc3)C(=O)[C@H]2C1
stdout: 19.2

stdin: // returns reported Percent Effect for input Cc1nc(NCCc2ccc(Cl)cc2)cc(C(=O)N2CCOCC2)n1
stdout: 23.7

stdin: // returns reported Percent Effect for input CCc1nc(CN2CCOC(Cn3nc(C)nc3C)C2)no1 (stereo unspecified)
stdout: 5.43

stdin: // returns reported Percent Effect for input CCC1=N[C@@]2(CC[C@@H]3CN(Cc4ccccc4F)C[C@@H]32)C(=O)N1CC
stdout: 5.93

stdin: // returns reported Percent Effect for input Cc1ccc2cnn(CCC(=O)Nc3c(C)nn(C)c3C)c2c1
stdout: -0.975

stdin: // returns reported Percent Effect for input Fc1ccc(CCN2CCC(c3nnc(-c4cccnc4)o3)CC2)cc1
stdout: 19.1

stdin: // returns reported Percent Effect for input OC1CCN(Cc2cc3c(cc2Br)OCCO3)CC1
stdout: -3.8
